Hi there, I'd appreciate the recorded log10(EC50) for every entry that follows.
Biological target: TLR8 (Homo sapiens, UniProt Q9NR97)
Construct: Human peripheral blood mononuclear cells (PBMCs) consist of lymphocytes, monocytes and dendritic cells that express TLR7, TLR8 and TLR9; endogenous in cells
Sequence (Q9NR97 27-1041): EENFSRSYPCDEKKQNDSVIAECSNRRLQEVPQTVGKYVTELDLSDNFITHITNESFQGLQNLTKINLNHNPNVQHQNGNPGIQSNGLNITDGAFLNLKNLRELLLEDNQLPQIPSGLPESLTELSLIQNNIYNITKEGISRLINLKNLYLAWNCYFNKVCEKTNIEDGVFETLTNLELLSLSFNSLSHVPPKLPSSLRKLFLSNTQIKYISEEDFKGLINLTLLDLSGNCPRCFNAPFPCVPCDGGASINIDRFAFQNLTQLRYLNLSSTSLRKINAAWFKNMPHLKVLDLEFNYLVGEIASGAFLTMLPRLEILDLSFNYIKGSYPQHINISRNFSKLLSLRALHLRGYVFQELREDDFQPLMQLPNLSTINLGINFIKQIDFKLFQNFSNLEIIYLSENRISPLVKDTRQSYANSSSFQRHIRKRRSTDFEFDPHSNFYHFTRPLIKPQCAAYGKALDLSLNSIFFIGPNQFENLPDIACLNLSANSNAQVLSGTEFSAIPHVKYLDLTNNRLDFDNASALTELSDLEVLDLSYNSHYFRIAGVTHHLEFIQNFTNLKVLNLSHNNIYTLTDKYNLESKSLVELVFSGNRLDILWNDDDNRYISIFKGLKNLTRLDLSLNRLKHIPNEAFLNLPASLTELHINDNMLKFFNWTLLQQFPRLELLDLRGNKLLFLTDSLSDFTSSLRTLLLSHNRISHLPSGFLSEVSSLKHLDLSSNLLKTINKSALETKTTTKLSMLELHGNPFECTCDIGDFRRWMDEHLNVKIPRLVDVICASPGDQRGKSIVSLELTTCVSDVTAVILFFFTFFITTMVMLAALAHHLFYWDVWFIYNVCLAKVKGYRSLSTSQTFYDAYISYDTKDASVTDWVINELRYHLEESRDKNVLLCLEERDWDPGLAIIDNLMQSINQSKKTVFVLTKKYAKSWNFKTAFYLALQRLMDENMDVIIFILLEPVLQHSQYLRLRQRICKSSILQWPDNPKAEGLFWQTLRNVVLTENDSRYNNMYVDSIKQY
Test: TLR8 human PBMC cell-based assay (antagonist, Compound A stimulated cytokine release)
Conditions: human PBMCs; TLR8 agonist Compound A 800 nM, 6 hours; cytokines (TNFa and IL 12p40) in supernatant; read-out: TLR-8 EC50
Field: value | Transform: log10 | Quantity: EC50 | Unit: nM

# count of solved cases: 3
compound=Cc1cc(-c2[nH]c3cc(C(=O)N(C)[C@@H]4CNC[C@H]4F)sc3c2C(C)C)cn2ncnc12 readout=log10(EC50) recorded_value=1.49
compound=Cc1cc(-c2[nH]c3cc(C(=O)N(C)[C@@H]4CNC[C@@H]4F)sc3c2C(C)C)cn2ncnc12 readout=log10(EC50) recorded_value=1.10
compound=Cc1cc(-c2[nH]c3cc(C(=O)N4CCC5(CCNC5)CC4)sc3c2C(C)C)cn2ncnc12 readout=log10(EC50) recorded_value=0.95

For each of the compounds below, state log10(EC50).
1. COc1cc(-c2[nH]c3cc(-c4cnn(C5CCNCC5)c4)sc3c2C(C)C)cn2ncnc12
2. Cc1cc(-c2[nH]c3cc(C4CC5CCC(C4)N5CC(N)=O)sc3c2C(C)C)cn2ncnc12 (centres unmarked)
3. Cc1cc(-c2[nH]c3cc(C(=O)N4CCN(CCO)CC4)sc3c2C(C)C)cc(C)n1

Key:
1: 0.15; 2: 1.02; 3: 1.50

For each of the compounds below, state log10(EC50).
1. Cc1c(-c2[nH]c3cc(C4CCN(CC(N)=O)CC4)sc3c2C(C)C)ccc2nn(C)c(=O)n12
2. Cc1cc(-c2[nH]c3cc(C(=O)N4C[C@@H]5[C@@H](N)[C@@H]5C4)sc3c2C(C)C)cn2ncnc12
3. Cc1cc(-c2[nH]c3cc(-c4ccc5c(c4)CNCC5)sc3c2C(C)C)cn2ncnc12
4. Cc1cc(-c2[nH]c3cc(C(=O)N(C)C4CCC(N5CC6(COC6)C5)CC4)sc3c2C(C)C)cn2ncnc12 (centres unmarked)

Key:
[2.24, 1.02, -0.30, 0.93]
